system: MC65 neuroblastoma cells; experiment: MC65 protection assay; type: cell-based; conditions: protection of MC65 cells from death caused by intracellular Aβ
metricName: EC50 values (in words)

These recorded examples may help you get a feel for the data.
compound: Cc1cc2c(c(=O)o1)C=C1CCC(C(C)CNCc3ccc(O)c(F)c3)CC1O2 (stereo not drawn)
system: MC65 neuroblastoma cells
EC50 values (in words): nanomolar range

compound: Cc1cc2c(c(=O)o1)C=C1CCC(C(C)CNCc3ccc(O)cc3)CC1O2 (stereo not drawn)
system: MC65 neuroblastoma cells
EC50 values (in words): nanomolar range

compound: CC(=O)OCCc1cc2c(c(=O)o1)C=C1CC[C@H](C(C)Cn3cnc(N)c4ncnc3-4)C[C@@H]1O2 (stereo partly drawn)
system: MC65 neuroblastoma cells
EC50 values (in words): nanomolar range

compound: Cc1cc2c(c(=O)o1)C=C1CCC(C(C)CNCc3c[nH]cn3)CC1O2 (stereo not drawn)
system: MC65 neuroblastoma cells
EC50 values (in words): nanomolar range

compound: Cc1cc2c(c(=O)o1)C=C1CCC(C(C)CNCc3ccc(CO)cc3)CC1O2 (stereo not drawn)
system: MC65 neuroblastoma cells
EC50 values (in words): nanomolar range

Task: Can you look up the measured EC50 values (in words) of Cc1cc2c(c(=O)o1)C=C1CCC(C(C)CNCc3ccc(O)c4ccccc34)CC1O2 (stereo not drawn) for me?
Result: nanomolar range

Origin of the recorded values: patent US9802962B2
